experimental.target: Hypoxia-inducible factor 1-alpha (Homo sapiens, UniProt Q16665)
Sequence (Q16665 whole entry): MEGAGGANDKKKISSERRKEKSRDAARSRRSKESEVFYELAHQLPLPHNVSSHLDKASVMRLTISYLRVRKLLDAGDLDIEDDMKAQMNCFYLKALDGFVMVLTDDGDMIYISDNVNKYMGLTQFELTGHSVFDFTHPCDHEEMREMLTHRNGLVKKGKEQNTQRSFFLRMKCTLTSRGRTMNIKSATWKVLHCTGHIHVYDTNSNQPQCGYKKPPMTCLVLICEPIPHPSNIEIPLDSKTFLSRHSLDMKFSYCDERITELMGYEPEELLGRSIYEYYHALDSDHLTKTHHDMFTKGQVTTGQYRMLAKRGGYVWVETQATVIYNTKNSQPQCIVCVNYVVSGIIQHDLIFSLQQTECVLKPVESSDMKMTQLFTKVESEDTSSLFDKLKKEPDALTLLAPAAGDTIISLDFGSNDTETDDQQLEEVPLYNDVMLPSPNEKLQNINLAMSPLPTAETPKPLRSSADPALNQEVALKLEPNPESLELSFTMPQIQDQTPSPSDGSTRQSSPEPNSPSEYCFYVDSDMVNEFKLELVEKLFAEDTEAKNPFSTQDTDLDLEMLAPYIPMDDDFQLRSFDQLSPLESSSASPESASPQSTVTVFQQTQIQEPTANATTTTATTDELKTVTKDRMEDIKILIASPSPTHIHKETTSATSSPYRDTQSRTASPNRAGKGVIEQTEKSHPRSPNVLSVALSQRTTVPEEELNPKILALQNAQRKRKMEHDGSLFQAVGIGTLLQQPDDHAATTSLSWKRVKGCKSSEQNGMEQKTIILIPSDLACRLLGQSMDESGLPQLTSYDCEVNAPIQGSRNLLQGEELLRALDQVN
test.summary: Inhibition of HIF1alpha transcriptional activity in human HeLa cells transfected with HRE-firefly luciferase and cytomegalovirus-promoter expressing Renilla luciferase incubated for 12 hrs under 1% O2 condition by dual luciferase reporter gene assay
recorded.endpoint: IC50 (µM)

These solved cases illustrate the format of a correct answer.
O=C1c2ccccc2-c2cnn(-c3ccc(C(F)(F)F)cc3)c21: 23
Cc1nn(-c2ccccc2)c2c1-c1ccccc1C2=O: 4.8
COc1ccc(-n2ncc3c2C(=O)c2ccccc2-3)cc1: 0.61
Cn1ncc2c1C(=O)c1ccccc1-2: 8.8

P. Cc1ccc(-n2ncc3c2C(=O)c2ccccc2-3)cc1
Q. O=C1c2ccccc2-c2cnn(-c3ccc(O)cc3)c21
R. O=C1c2ccccc2-c2cnn(-c3ccccc3)c21
S. O=C1c2ncccc2-c2cnn(-c3ccccc3)c21
### Prompt Falling order of IC50, please. Returns: the labels arranged in the requested order.
### Response S, R, P, Q
(S: 10 µM, R: 1.4 µM, P: 0.79 µM, Q: 0.39 µM)
